# target-or-system: Kappa-type opioid receptor (Cavia porcellus)
# Sequence (P41144 whole entry): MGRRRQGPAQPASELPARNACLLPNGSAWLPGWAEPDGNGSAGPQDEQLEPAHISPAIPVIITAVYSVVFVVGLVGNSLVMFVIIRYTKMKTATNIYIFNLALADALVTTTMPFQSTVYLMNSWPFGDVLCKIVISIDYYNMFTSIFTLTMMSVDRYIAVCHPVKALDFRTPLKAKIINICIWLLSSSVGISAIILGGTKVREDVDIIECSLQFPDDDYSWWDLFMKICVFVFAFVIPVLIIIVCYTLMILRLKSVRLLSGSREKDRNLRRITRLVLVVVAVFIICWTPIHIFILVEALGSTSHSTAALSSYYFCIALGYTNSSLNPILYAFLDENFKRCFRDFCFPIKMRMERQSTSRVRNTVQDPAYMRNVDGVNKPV
# test-protocol: Binding affinity towards Opioid receptor kappa 1 using [3H]diprenorphine as radioligand in guinea pig cerebellar membrane in presence of 120 mM NaCl + 50 uM Gpp(NH)p
# Type: cell membranes, Cerebellum
reported-endpoint: pIC50
Numbers only, as −log10 of the molar value.

molecule	target-or-system	reported-endpoint	measured
CC[C@H](C)[C@H](NC(=O)[C@H](CCCN=C(N)N)NC(=O)[C@H](CCCN=C(N)N)NC(=O)[C@H](CC(C)C)NC(=O)[C@H](Cc1ccccc1)NC(=O)CNC(=O)CNC(=O)[C@H](Cc1ccc(O)cc1)NCC1CC1)C(=O)N[C@@H](CCCN=C(N)N)C(=O)N1CCCC1C(=O)N[C@@H](CCCCN)C(=O)O (stereo in doubt)	Kappa-type opioid receptor (Cavia porcellus)	pIC50	7.57
CC[C@H](C)[C@H](NC(=O)[C@H](CCCN=C(N)N)NC(=O)[C@H](CCCN=C(N)N)NC(=O)[C@H](CC(C)C)NC(=O)[C@H](Cc1ccccc1)NC(=O)CNC(=O)CNC(=O)[C@H](Cc1ccc(O)cc1)N(Cc1ccccc1)Cc1ccccc1)C(=O)N[C@@H](CCCN=C(N)N)C(=O)N1CCCC1C(=O)N[C@@H](CCCCN)C(=O)O (stereo in doubt)	Kappa-type opioid receptor (Cavia porcellus)	pIC50	6.41
CC[C@H](C)[C@H](NC(=O)[C@H](CCCN=C(N)N)NC(=O)[C@H](CCCN=C(N)N)NC(=O)[C@H](CC(C)C)NC(=O)[C@H](Cc1ccccc1)NC(=O)CNC(=O)CNC(=O)[C@H](Cc1ccc(O)cc1)N(CC1CC1)CC1CC1)C(=O)N[C@@H](CCCN=C(N)N)C(=O)N1CCCC1C(=O)N[C@@H](CCCCN)C(=O)O (stereo in doubt)	Kappa-type opioid receptor (Cavia porcellus)	pIC50	7.54

Look up pIC50 for this molecule: C=CCN(CC=C)[C@@H](Cc1ccc(O)cc1)C(=O)NCC(=O)NCC(=O)N[C@@H](Cc1ccccc1)C(=O)N[C@@H](CC(C)C)C(=O)N[C@@H](CCCN=C(N)N)C(=O)N[C@@H](CCCN=C(N)N)C(=O)N[C@H](C(=O)N[C@@H](CCCN=C(N)N)C(=O)N1CCCC1C(=O)N[C@@H](CCCCN)C(=O)O)[C@@H](C)CC (stereo in doubt)
7.19

###

# target-or-system: Delta-type opioid receptor (Rattus norvegicus, UniProt P33533)
# Sequence (P33533 whole entry): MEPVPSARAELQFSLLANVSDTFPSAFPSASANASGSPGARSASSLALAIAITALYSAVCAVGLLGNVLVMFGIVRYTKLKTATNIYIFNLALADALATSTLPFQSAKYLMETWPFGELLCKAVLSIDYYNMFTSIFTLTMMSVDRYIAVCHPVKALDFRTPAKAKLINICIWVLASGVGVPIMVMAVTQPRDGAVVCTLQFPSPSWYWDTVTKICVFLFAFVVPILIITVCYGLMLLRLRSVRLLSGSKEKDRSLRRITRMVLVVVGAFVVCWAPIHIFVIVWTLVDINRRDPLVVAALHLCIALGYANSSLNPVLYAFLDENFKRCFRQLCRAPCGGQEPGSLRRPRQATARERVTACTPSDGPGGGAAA
# test-protocol: Affinity against Opioid receptor delta 1 was determined by measuring the inhibition of [3H]DPDPE binding to rat forebrain membranes
reported-endpoint: pKi
Numbers only, as −log10 of the molar value.

Look up pKi for this compound: CC[C@H](C)[C@H](NC(=O)[C@H](CCCN=C(N)N)NC(=O)[C@H](CCCN=C(N)N)NC(=O)[C@H](CC(C)C)NC(=O)[C@H](Cc1ccccc1)NC(=O)CNC(=O)CNC(=O)[C@H](Cc1ccc(O)cc1)NCC1CC1)C(=O)N[C@@H](CCCN=C(N)N)C(=O)N1CCCC1C(=O)N[C@@H](CCCCN)C(=O)O (stereo in doubt)
6.25

###

I'd appreciate it if you could supply Ratio values for the items below.
# test-protocol: IC50 ratio measured as the IC50(presence of 50 uM of Gpp(NH)p)/IC50 (absence of 50 uM of Gpp(NH)p).
Give bare numbers.

compound	Ratio
CC[C@H](C)[C@H](NC(=O)[C@H](CCCN=C(N)N)NC(=O)[C@H](CCCN=C(N)N)NC(=O)[C@H](CC(C)C)NC(=O)[C@H](Cc1ccccc1)NC(=O)CNC(=O)CNC(=O)[C@H](Cc1ccc(O)cc1)NCC1CC1)C(=O)N[C@@H](CCCN=C(N)N)C(=O)N1CCCC1C(=O)N[C@@H](CCCCN)C(=O)O (stereo in doubt)	66.9
CC[C@H](C)[C@H](NC(=O)[C@H](CCCN=C(N)N)NC(=O)[C@H](CCCN=C(N)N)NC(=O)[C@H](CC(C)C)NC(=O)[C@H](Cc1ccccc1)NC(=O)CNC(=O)CNC(=O)[C@H](Cc1ccc(O)cc1)N(CC1CC1)CC1CC1)C(=O)N[C@@H](CCCN=C(N)N)C(=O)N1CCCC1C(=O)N[C@@H](CCCCN)C(=O)O (stereo in doubt)	8.79
CC[C@H](C)[C@H](NC(=O)[C@H](CCCN=C(N)N)NC(=O)[C@H](CCCN=C(N)N)NC(=O)[C@H](CC(C)C)NC(=O)[C@H](Cc1ccccc1)NC(=O)CNC(=O)CNC(=O)[C@H](Cc1ccc(O)cc1)N(Cc1ccccc1)Cc1ccccc1)C(=O)N[C@@H](CCCN=C(N)N)C(=O)N1CCCC1C(=O)N[C@@H](CCCCN)C(=O)O (stereo in doubt)	9.05

Then this compound:
Look up Ratio for this compound: C=CCN(CC=C)[C@@H](Cc1ccc(O)cc1)C(=O)NCC(=O)NCC(=O)N[C@@H](Cc1ccccc1)C(=O)N[C@@H](CC(C)C)C(=O)N[C@@H](CCCN=C(N)N)C(=O)N[C@@H](CCCN=C(N)N)C(=O)N[C@H](C(=O)N[C@@H](CCCN=C(N)N)C(=O)N1CCCC1C(=O)N[C@@H](CCCCN)C(=O)O)[C@@H](C)CC (stereo in doubt)
3.03
